assay: antimalarial activity against Dd2 strain (AID 2302);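 further: 0% = DMSO untreated growth and 100% = chloroquine plus artemisinin killed control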; conditions: P. falciparum Dd2 in RBCs, LDH growth readout, 72 h; at 2 µM; active compounds read high
readoutLabel: growth inhibition (%)
Answer format: numeric, % implied, no suffix.

>  <compound>
CC(C)CNCc1ccc(OCc2cccc(COc3ccc(CNCC(C)C)cc3I)c2)c(I)c1

>  <unitAbbrev>
%

>  <growth inhibition>
84

$$$$

For the compound O=C(NCc1cc2c(cc1Cl)OCO2)c1ccc(CNC2CCN(Cc3ccccc3)CC2)cc1 , give its reported growth inhibition.
47

For the compound CNC(=S)NN=C(C)c1ccccn1 , give its reported growth inhibition.
99

---

As shown below, each of these molecules has a reported growth inhibition value.
assay: inhibition of 3D7 malaria parasite growth – strain 3D7 (AID 2306);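 further: 0% = DMSO wells and 100% = chloroquine plus artemisinin control wells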; conditions: P. falciparum 3D7 erythrocytic growth, LDH absorbance, 72 h; at 2 µM; active compounds read high
Activity calls are given as the source filed them. How the calls were made is not given here.

>  <molecule>
COc1ccccc1C1CCN(C2CCC(NC(=O)/C=C/c3cccc(C(F)(F)F)c3)CC2)CC1 (centres undefined)

>  <readoutLabel>
growth inhibition

>  <testResult>
99% (active)

$$$$
>  <molecule>
O=C(CNc1ccc(Cl)c(S(=O)(=O)N2CCCC2)c1)Nc1ccc(Br)cc1F

>  <readoutLabel>
growth inhibition

>  <testResult>
99% (active)

$$$$
>  <molecule>
CN(C)C(=S)N=Nc1c(O)[nH]c2ccc(OC(F)(F)F)cc12

>  <readoutLabel>
growth inhibition

>  <testResult>
93% (active)

$$$$
>  <molecule>
Cc1ccc(Cn2c(N3CCC(C(=O)NCc4ccccn4)CC3)nc3ccccc32)cc1

>  <readoutLabel>
growth inhibition

>  <testResult>
100% (active)

$$$$
>  <molecule>
CCc1c(CCNCCCC(C)CCNCCc2ccc(OC)c(OC)c2CC)ccc(OC)c1OC (centres undefined)

>  <readoutLabel>
growth inhibition

>  <testResult>
100% (active)

$$$$
>  <molecule>
COC(=O)c1ccc2nc(-c3ccc(C(=O)NC4CCN(Cc5ccccc5)CC4)s3)[nH]c2c1

>  <readoutLabel>
growth inhibition

>  <testResult>
99% (active)

$$$$
>  <molecule>
COc1ccc(Cn2c(N3CCN(S(=O)(=O)c4ccc(OC)cc4)CC3)nc3c2c(=O)n(CC2CC2)c(=O)n3CC2CC2)cc1

>  <readoutLabel>
growth inhibition

>  <testResult>
92% (active)

$$$$
>  <molecule>
CCCCC(=O)Nc1nc2ccc([N+](=O)[O-])cc2s1

>  <readoutLabel>
growth inhibition

>  <testResult>
91% (active)

$$$$
>  <molecule>
CCc1ccc(-n2c(NC(=O)c3ccccc3)nc3ccc(S(=O)(=O)NC(C)C(C)C)cc32)cc1 (centres undefined)

>  <readoutLabel>
growth inhibition

>  <testResult>
88% (active)

$$$$
>  <molecule>
CCN1CCC(N(Cc2ccc(-c3ccc(C(F)(F)F)cc3)cc2)C(=O)Cn2c(CCc3cccc(F)c3F)cc(=O)c3ccc(OCc4ccccc4)cc32)CC1

>  <readoutLabel>
growth inhibition

>  <testResult>
102% (active)

$$$$

For the molecule Cc1ccc(F)cc1S(=O)(=O)N1CCCCC(c2ccc(C(F)(F)F)cc2)=N1 , give its reported growth inhibition.
82% (active)

For the molecule Cc1nc(N)nc(N)c1OCc1cccc2c1ccc1ccccc12 , give its reported growth inhibition.
95% (active)

For the molecule CCc1ccc(NC(=O)c2ccc(CN3CCCN(Cc4ccc(C)s4)CC3)cc2)cc1 , give its reported growth inhibition.
87% (active)

For the molecule Nc1n[nH]c(-c2ccccc2Nc2ccnc3cc(-c4nccs4)ccc23)n1 , give its reported growth inhibition.
100% (active)

For the molecule CCC(C)NS(=O)(=O)c1ccc2nc(Nc3ccc(C)cc3)n([C@H](C)C(C)(C)C)c2c1 (some centres undefined) , give its reported growth inhibition.
98% (active)

For the molecule O=C(/C=C/c1ccc(Cl)c(Cl)c1)NCCCCCN1CCC(NC(=O)NC2CCCC2)CC1 , give its reported growth inhibition.
99% (active)

For the molecule COc1ccc(Nc2nccc(N3CCC(NS(=O)(=O)c4ccc(NC(C)=O)cc4)C3)n2)cc1 (centres undefined) , give its reported growth inhibition.
100% (active)

For the molecule COc1ccccc1C1CCN(C2CCC(NC(=O)/C=C/c3cc(C(F)(F)F)cc(C(F)(F)F)c3)CC2)CC1 (centres undefined) , give its reported growth inhibition.
92% (active)

For the molecule Cc1cccc(Cn2c(C(N)=O)nn(-c3ccc([N+](=O)[O-])cc3C#N)c2=S)c1 , give its reported growth inhibition.
101% (active)

---

assay: inhibition of 3D7 malaria parasite growth – strain 3D7 (AID 2306);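 further: 0% = DMSO wells and 100% = chloroquine plus artemisinin control wells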; settings: P. falciparum 3D7 erythrocytic growth, LDH absorbance, 72 h; at 2 µM; active compounds read high
As shown below, each of these compounds has a reported growth inhibition value.
Answer format: numeric, % implied, no suffix.

Example entries begin here.
>  <compound>
Cc1cccc2[nH]c(-c3cccc(-c4cccc(NC(=O)NCc5cccc(F)c5)c4)c3)nc12

>  <readoutLabel>
growth inhibition

>  <testResult>
98

$$$$
>  <compound>
Cc1ccc(Nc2nc3cc(N(C)c4ccnc(Nc5cccc(CS(C)(=O)=O)c5)n4)ccc3o2)cc1

>  <readoutLabel>
growth inhibition

>  <testResult>
90

$$$$
>  <compound>
O=C(Nc1nc2cc(S(=O)(=O)NCCc3cccc(F)c3)ccc2n1CCCn1ccnc1)c1ccc(Cl)cc1

>  <readoutLabel>
growth inhibition

>  <testResult>
90

$$$$
>  <compound>
Cc1cc(OCCCN2CCC(NS(=O)(=O)c3ccc(Cl)c(Cl)c3)CC2)c2ccccc2n1

>  <readoutLabel>
growth inhibition

>  <testResult>
96

$$$$
>  <compound>
CNC(=O)c1cnc(Nc2ccc3[nH]c(=O)[nH]c3c2)nc1Nc1cccc(OC(C)C)c1

>  <readoutLabel>
growth inhibition

>  <testResult>
89

$$$$
>  <compound>
CCCCOc1c(CNCCCCCCNCc2ccc3ccccc3c2OCCCC)ccc2ccccc12

>  <readoutLabel>
growth inhibition

>  <testResult>
96

$$$$
>  <compound>
Cc1cc(NCC(C)C)c2[nH]nc(-c3ccccc3)c2n1

>  <readoutLabel>
growth inhibition

>  <testResult>
99

$$$$
>  <compound>
CC(=O)c1ccc2c(c1)[C@H](NC(=O)c1cccc(Cl)c1Cl)[C@@H](CO)C(C)(C)O2

>  <readoutLabel>
growth inhibition

>  <testResult>
99

$$$$

Here is another compound to look at.
For the compound CN(C)c1ccc(C=CC(=O)NC(=O)c2ccccc2O)cc1 , give its reported growth inhibition.
92

---

assay: antimalarial activity against Dd2 strain (AID 2302);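 further: 0% = DMSO untreated growth and 100% = chloroquine plus artemisinin killed control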; conditions: P. falciparum Dd2 in RBCs, LDH growth readout, 72 h; at 2 µM; active compounds read high
The source made the active and inactive calls.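 The calls were made as follows: active = growth inhibition above 50% at the single 2 µM test dose, taken to imply half-maximal potency below 2 µM; inactive = the rest.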
readoutLabel: growth inhibition

>  <compound>
CC(CN1CCN(C)CC1)C(=O)Nc1cccc(-c2cccc(-c3nc4ccc(F)cc4[nH]3)c2)c1 (centres undefined)

>  <growth inhibition>
78% (active)

$$$$
>  <compound>
Cc1cc(C)c(S(=O)(=O)N2CCCCC(c3cccc(C(F)(F)F)c3)=N2)c(C)c1

>  <growth inhibition>
95% (active)

$$$$
>  <compound>
CCOC(=O)c1ccc(NC(=O)NCCCC2CCCN(CCCCCNC(=O)/C=C/c3ccc(Cl)c(Cl)c3)C2)cc1 (centres undefined)

>  <growth inhibition>
30% (inactive)

$$$$
>  <compound>
C[C@]12CC3CC(Nc4nc(N5CCOCC5)nc5ccccc45)(C1)C[C@@](C)(C3)C2

>  <growth inhibition>
14% (inactive)

$$$$
>  <compound>
Cc1cccc2[nH]c(-c3ccc(-c4cccc(CN5CCC(CCN6CCCCC6)CC5)c4)s3)nc12

>  <growth inhibition>
100% (active)

$$$$
>  <compound>
OC1(c2ccccc2)CCN(Cc2cccc(-c3c[nH]c4nc(NC5CCCC5)ncc34)c2)C1 (centres undefined)

>  <growth inhibition>
31% (inactive)

$$$$

For the compound CC(CCc1ccccc1)NCC(O)c1ccc2c3c(cccc13)S(=O)(=O)N2C (centres undefined) , give its reported growth inhibition.
99% (active)

For the compound Cc1cc(N2CCOCC2)nc(Nc2ccc(NC(=O)Nc3ccc(F)cc3)cc2)n1 , give its reported growth inhibition.
34% (inactive)

For the compound CCCCN(CCCC)C(=NCCCCCCN=C(/N=C(/N)Nc1ccc(Cl)cc1)N(CCCC)CCCC)/N=C(/N)Nc1ccc(Cl)cc1 , give its reported growth inhibition.
72% (active)

---

assay: antimalarial activity against Dd2 strain (AID 2302);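 further: 0% = DMSO untreated growth and 100% = chloroquine plus artemisinin killed control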; details: P. falciparum Dd2 in RBCs, LDH growth readout, 72 h; at 2 µM; active compounds read high
# binarize growth inhibition: threshold 90% inclusive, high side True, low side False

Answered cases to consult:
>  <compound>
N#Cc1ccc(-c2ccc(C(=O)NCCCCN3CCC(c4nc5ccccc5[nH]4)CC3)cc2)cc1

>  <categoryLabel>
False

$$$$
>  <compound>
Cc1cccc2[nH]c(-c3ccc(-c4ccc(CNCc5ccccc5)cc4)s3)nc12

>  <categoryLabel>
False

$$$$

Determine whether this compound has growth inhibition no lower than 90%: O=C(Nc1ccc(C(=O)Oc2cccc3ccccc23)cc1)N[C@@H](Cc1ccc(O)cc1)C(=O)NC1CCN(Cc2ccc(O)cc2)C1 (some centres undefined)
False

Determine whether this compound has growth inhibition no lower than 90%: COc1ccc(C(=O)NC2CCN(c3ccnc4cc(Cl)ccc34)C2)cc1 (centres undefined)
True

Determine whether this compound has growth inhibition no lower than 90%: Cc1cc(N[C@@H](CC(C)C)C(=O)NCc2cccs2)nc(Nc2ccccc2)n1
False

Determine whether this compound has growth inhibition no lower than 90%: CS(=O)(=O)n1c(CN2CCN(c3ncc(C(F)(F)F)cc3Cl)CC2)nc2ccccc21
False

Determine whether this compound has growth inhibition no lower than 90%: Cc1ccc(Nc2nc(NN=Cc3cccc([N+](=O)[O-])c3)nc(Nc3ccccc3)n2)c(C)c1
True

Determine whether this compound has growth inhibition no lower than 90%: Oc1ccc(CCNc2nc(NCCCOc3ccccc3-c3cccnc3)nc(N3CCNCC3)n2)cc1
False
